# Method: Solubility of corticosteroids in neat solvents, measured gravimetrically
# Assay type: physicochemical
# Study Conditions: ratio of Table 1 solubilities
Listing of recorded times more soluble in PG monolaurate than in isopropyl myristate by entry.
Express your answer in times, writing the number without its unit.

Recorded results for 2 molecules are shown here.
INSERT INTO assay_data (molecule, numeric_value) VALUES
  ('CCC(=O)O[C@]1(C(=O)CCl)[C@@H](C)C[C@H]2[C@@H]3CCC4=CC(=O)C=C[C@]4(C)[C@@]3(F)[C@@H](O)C[C@@]21C [Clobetasol Propionate]', 7.2),
  ('CCCC(=O)O[C@]1(C(=O)CO)CC[C@H]2[C@@H]3CCC4=CC(=O)CC[C@]4(C)[C@H]3[C@@H](O)C[C@@]21C [Hydrocortisone Butyrate]', 13.5);

# ---- query molecule ----
**Query** So what does the record say about times more soluble in PG monolaurate than in isopropyl myristate for CCC(=O)OCC(=O)[C@@]1(OC(=O)CC)[C@@H](C)C[C@H]2[C@@H]3CCC4=CC(=O)C=C[C@]4(C)[C@@]3(F)[C@@H](O)C[C@@]21C [Betamethasone Dipropionate] ?
**Result** 15.3
